Below, each entry is listed alongside its reported relative fluorescence (rf).
# target-under-test: GvpF fused to NGFP or CGFP (split-GFP) (Halobacterium salinarum PHH1)
# Sequence (P24370 whole entry, the tested form may be a part): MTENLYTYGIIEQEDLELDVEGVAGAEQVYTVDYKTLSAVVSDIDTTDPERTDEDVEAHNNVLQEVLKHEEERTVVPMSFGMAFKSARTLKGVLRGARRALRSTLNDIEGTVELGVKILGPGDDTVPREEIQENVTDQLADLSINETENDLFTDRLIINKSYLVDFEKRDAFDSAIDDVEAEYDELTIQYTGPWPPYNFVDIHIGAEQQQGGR
# run-description: split reporter (BiFC, NanoBiT); split-GFP (mGFP2 split between residues 157 and 158) in Hfx. volcanii transformants in vivo; eight combinations of fusions a pair, highest relative fluorescence (rf) given; cells in basal salts (3 M NaCl, 150 mM MgSO4, 50 mM KCl) at OD600 1; rf > 5 clear interaction, rf < 1 no interaction
observation-type: relative fluorescence (rf)

{"binder": "GvpA fused to NGFP or CGFP (split-GFP) (natural protein) MAQPDSSGLAEVLDRVLDKGVVVDVWARVSLVGIEILTVEARVVAASVDTFLHYAEEIAKIEQAELTAGAEAAPEA", "observation-type": "relative fluorescence (rf)", "reported-measurement": "15 to 18 rf"}
{"binder": "GvpA R28D (split-GFP fusion) (natural protein) MAQPDSSGLAEVLDRVLDKGVVVDVWADVSLVGIEILTVEARVVAASVDTFLHYAEEIAKIEQAELTAGAEAAPEA", "observation-type": "relative fluorescence (rf)", "reported-measurement": "< 6 rf"}
{"binder": "GvpA D24Y (split-GFP fusion) (natural protein) MAQPDSSGLAEVLDRVLDKGVVVYVWARVSLVGIEILTVEARVVAASVDTFLHYAEEIAKIEQAELTAGAEAAPEA", "observation-type": "relative fluorescence (rf)", "reported-measurement": "< 6 rf"}
{"binder": "GvpA G20D (split-GFP fusion) (natural protein) MAQPDSSGLAEVLDRVLDKDVVVDVWARVSLVGIEILTVEARVVAASVDTFLHYAEEIAKIEQAELTAGAEAAPEA", "observation-type": "relative fluorescence (rf)", "reported-measurement": "< 6 rf"}
{"binder": "GvpA G20A (split-GFP fusion) (natural protein) MAQPDSSGLAEVLDRVLDKAVVVDVWARVSLVGIEILTVEARVVAASVDTFLHYAEEIAKIEQAELTAGAEAAPEA", "observation-type": "relative fluorescence (rf)", "reported-measurement": "< 6 rf"}
